Where do these numbers come from? They come from patent US12281162.

target: T1, human G-protein-coupled receptor family C group 5 member D (GPRC5D) (human, UniProt Q9NZD1 1-345); test: FACS, CHO-K1/human GPRC5D
T1 construct: whole, on cells; also called human GPRC5D protein
T1 sequence (Q9NZD1 whole entry): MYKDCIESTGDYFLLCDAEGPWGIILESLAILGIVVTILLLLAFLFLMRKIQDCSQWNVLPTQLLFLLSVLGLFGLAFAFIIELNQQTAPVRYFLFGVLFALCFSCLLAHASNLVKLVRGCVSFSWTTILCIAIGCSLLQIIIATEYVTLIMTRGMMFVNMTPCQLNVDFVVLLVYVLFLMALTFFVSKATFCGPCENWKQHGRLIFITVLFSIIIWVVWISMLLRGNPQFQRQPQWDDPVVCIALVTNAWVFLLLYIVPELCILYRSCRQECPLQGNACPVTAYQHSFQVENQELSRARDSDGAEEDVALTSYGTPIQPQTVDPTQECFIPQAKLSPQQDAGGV
property name: Top
Please reply with the number alone, leaving off any unit.

Solved cases (3 shown):
[
  {
    "binder": "6-H3L3 (antibody, V domains shown, humanized 6G10D9, VH v3 x VL v3) VH: QVQLVQSGAEVAKPGASVKVSCKASGYTFTTYTMHWVKQAPGQGLEWLGYINPSSGYTNYNQKFKDRVTMTADTSTSTVYMELSSLRSEDTAVYYCASLRSRGYFDYWGQGTLVTVSS VL: DIQMTQSPSFLSTSVGDRVTITCKASQNVGTAVVWYQQKPGKSPKLLIYSASNRYTGVPSRFSGSGSGTEFTLTISSMQPEDFATFFCQQYSSYPYTFGQGTKLEIK",
    "property name": "Top",
    "result number": 134000
  },
  {
    "binder": "37B9C4-XI (antibody, V domains shown, also called 37B9C4 (chimeric); 37-XI) VH: EVNLEESGGGLVQPGGSMKLSCVASGFTFSDYWMNWVRQSPEKGLEWVAEIRLKSNNYATHYAESVKGRFTISRDDSKSSVYLQMNNLRAEDTGIYYCTRPLLWFRRYYAMDYWGQGTSVTVSS VL: DIQMTQTTSSLSASLGDRITISCSASQGISNYLNWYQQKPDGTVKLLIYYTSSLHSGVPSRFSGSGSGTDYSLTISNLEPADIATYYCQQYSKLPFTFGSGTKLEIK",
    "property name": "Top",
    "result number": 113000
  },
  {
    "binder": "58-H3L1 (antibody, V domains shown, humanized 58F9G10, VH v3 x VL v1) VH: QVQLVQSGAEVKKPGASVKVSCKASGYSFTGYYIHWVKQAPGQGLEWIGYISSYNAATSFNQKFKGRVTFTVDTSTSTVYMEFSSLRSEDTAVYYCARTELRGPWFAYWGQGTLVTVSS VL: DIQMTQSPSSLSASVGDRVTITCSASSSVSYMNWYQQKPGKAPKLLIYDTSKLASGVPSRFSGSGSGTDFTLTISSLQPEDFATYYCQQWSNNPLTFGQGTKLEIK",
    "property name": "Top",
    "result number": 104000
  }
]

Okay, next one:
Entry under review: 58-H1L1 (antibody, V domains shown, humanized 58F9G10, VH v1 x VL v1) VH: QVQLVQSGAEVKKPGASVKVSCKASGYSFTGYYIHWVRQAPGQGLEWMGYISSYNAATSFNQKFKGRVTMTRDTSTSTVYMELSSLRSEDTAVYYCARTELRGPWFAYWGQGTLVTVSS VL: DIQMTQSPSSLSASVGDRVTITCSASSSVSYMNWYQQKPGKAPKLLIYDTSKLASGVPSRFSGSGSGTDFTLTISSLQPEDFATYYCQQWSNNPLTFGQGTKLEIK . Reported Top?
99500
